// provenance: paper PMC8809517

Recorded Kd, one value per entry.
target.under.test: T1, GFP-9S library array, motif 4 ND N98A;D124V (synthetic construct, N98A;D124V)
T1 chain: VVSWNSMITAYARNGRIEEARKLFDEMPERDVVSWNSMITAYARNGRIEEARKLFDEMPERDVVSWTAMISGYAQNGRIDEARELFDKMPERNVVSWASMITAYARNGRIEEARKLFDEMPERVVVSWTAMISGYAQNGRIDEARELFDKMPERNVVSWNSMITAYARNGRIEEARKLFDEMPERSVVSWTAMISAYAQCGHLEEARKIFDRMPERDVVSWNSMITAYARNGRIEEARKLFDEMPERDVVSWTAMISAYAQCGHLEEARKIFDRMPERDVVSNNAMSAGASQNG
measurement.notes: high-throughput RNA pulldown from lysate on Ni-NTA beads; HRP: 50 mM Tris pH 8, 150 mM NaCl, 1 mM beta-mercaptoethanol, 50 ug/ml BSA, 3 ug/ml yeast RNA, 0.5% heparin; ITC and FP: Tris pH 8, 200 mM KCl, 5% glycerol; MST: 50 mM Tris pH 8, 200 mM NaCl, 1 mM DTT, BSA, heparin, 0.05% Tween 20
measurement.parameters: tags: N-terminal His-eGFP; label: 5' Cy5
Express the result in nM but write the number alone.

binder	property.measured	observed.result
AUUACACGUGA (ssRNA) [Cy5-rpoA]	Kd	91.2

Kindly consider the entry below.
Fill in the blank: the reported Kd of AUUAGACGUGA (ssRNA) [Cy5-rpoA-G] is ____.
124
